molecular target: CYP2C9 (Homo sapiens, UniProt P11712); assay: Inhibition of CYP2C9 in human liver microsomes assessed as residual activity using diclofenac as substrate at 50 uM relative to control; settings: probe diclofenac
Sequence (P11712 whole entry): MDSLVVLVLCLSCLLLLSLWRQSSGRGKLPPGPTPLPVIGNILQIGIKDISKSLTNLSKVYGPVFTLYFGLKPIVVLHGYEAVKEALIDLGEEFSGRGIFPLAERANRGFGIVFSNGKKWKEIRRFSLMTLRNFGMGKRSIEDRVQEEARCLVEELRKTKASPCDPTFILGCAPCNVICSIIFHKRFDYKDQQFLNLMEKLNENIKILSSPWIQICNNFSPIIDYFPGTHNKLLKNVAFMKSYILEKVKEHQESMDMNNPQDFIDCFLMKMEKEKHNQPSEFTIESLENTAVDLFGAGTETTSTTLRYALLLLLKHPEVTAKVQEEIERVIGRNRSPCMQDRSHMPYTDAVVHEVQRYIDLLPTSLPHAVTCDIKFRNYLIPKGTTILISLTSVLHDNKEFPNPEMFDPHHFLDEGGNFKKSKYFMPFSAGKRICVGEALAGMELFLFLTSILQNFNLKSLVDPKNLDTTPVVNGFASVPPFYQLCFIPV

- molecule: "NNc1nncc2ccccc12 [HYDRALAZINE]"
  unit.abbreviation: "%"
  activity at 50 µM: 95

----------
Target: Aldehyde oxidase (Homo sapiens)
Sequence (Q06278 whole entry): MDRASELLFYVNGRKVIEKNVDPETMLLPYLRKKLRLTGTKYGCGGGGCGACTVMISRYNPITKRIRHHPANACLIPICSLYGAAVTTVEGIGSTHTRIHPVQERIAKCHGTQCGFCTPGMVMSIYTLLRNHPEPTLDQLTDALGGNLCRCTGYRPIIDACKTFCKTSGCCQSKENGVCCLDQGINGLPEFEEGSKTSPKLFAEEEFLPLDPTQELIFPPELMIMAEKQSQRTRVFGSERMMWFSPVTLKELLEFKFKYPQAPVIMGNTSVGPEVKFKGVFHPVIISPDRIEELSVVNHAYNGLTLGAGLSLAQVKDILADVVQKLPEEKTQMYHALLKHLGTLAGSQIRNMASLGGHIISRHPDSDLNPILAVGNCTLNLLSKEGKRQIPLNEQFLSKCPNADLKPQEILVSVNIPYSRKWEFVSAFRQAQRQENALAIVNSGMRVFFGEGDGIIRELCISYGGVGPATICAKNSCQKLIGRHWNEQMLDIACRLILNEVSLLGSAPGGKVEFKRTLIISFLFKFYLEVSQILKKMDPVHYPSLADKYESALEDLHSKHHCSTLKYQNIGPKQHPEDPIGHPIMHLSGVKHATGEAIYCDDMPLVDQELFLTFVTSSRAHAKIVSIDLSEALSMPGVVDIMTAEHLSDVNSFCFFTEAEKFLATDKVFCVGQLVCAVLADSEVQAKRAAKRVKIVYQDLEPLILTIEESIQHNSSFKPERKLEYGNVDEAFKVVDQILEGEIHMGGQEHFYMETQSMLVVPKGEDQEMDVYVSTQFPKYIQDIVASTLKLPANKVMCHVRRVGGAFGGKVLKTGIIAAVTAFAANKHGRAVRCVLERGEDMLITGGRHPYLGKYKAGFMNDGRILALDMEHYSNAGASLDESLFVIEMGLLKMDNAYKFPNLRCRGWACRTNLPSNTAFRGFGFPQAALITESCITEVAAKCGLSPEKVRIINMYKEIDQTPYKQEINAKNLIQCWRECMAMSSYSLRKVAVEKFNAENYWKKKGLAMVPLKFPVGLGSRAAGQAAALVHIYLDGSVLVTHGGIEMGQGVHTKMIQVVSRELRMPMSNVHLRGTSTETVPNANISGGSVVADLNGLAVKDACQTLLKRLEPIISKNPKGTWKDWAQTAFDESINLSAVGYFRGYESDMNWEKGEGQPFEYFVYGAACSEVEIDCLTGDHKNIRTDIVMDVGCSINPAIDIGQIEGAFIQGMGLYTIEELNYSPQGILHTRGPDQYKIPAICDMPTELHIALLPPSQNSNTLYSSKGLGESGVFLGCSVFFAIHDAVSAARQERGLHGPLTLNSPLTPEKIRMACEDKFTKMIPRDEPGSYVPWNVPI
Experiment: Inhibition of aldehyde oxidase in human liver cytosol assessed as production of oxozoniporide
property.label: Ki (µM)

- smiles.notation: "CCN(C(C)=O)c1cccc(-c2ccnc3c(C#N)cnn23)c1"
  readout.number: 83
